Activity calls are given as the source filed them.
In what follows, each item is paired with its Kd for RNA cytidine acetyltransferase (Homo sapiens).

molecule	value-type	reported-measurement
C[C@@H](Oc1cc(-n2cnc3ccc(CN4CCN(C)CC4)cc32)sc1C(N)=O)c1ccccc1C(F)(F)F [GSK-461364]	Kd	> 30 µM (inactive)
FC(F)(F)c1ccc(/C=C/c2nc(COc3ccc(CCCCn4ccnn4)cc3)co2)cc1 [MUBRITINIB]	Kd	> 30 µM (inactive)
COc1cc([C@@H]2c3cc4c(cc3[C@H](O)[C@H]3COC(=O)[C@@H]23)OCO4)cc(OC)c1OC [AXL-1717]	Kd	> 30 µM (inactive)
COc1cc(Nc2ncc3c(n2)-c2ccc(Cl)cc2C(c2c(F)cccc2OC)=NC3)ccc1C(=O)O [ALISERTIB]	Kd	> 30 µM (inactive)
COCc1c(-c2ccc(NC(=O)Nc3cc(C(F)(F)F)ccc3F)c(F)c2)c2c(N)ncnn2c1CN1CCOCC1	Kd	> 30 µM (inactive)

Observed Kd, RNA cytidine acetyltransferase (Homo sapiens), "Cc1nc2cc(-c3nn(C(C)C)c4ncnc(N)c34)ccc2o1" : > 30 µM (inactive)

Observed Kd, RNA cytidine acetyltransferase (Homo sapiens), COCC(=O)NC/C=C/c1ccc2ncnc(Nc3ccc(Oc4ccc(C)nc4)c(C)c3)c2c1 [CP-724714] : > 30 µM (inactive)

Observed Kd, RNA cytidine acetyltransferase (Homo sapiens), CCOc1cc2ncc(C#N)c(Nc3ccc(F)c(Cl)c3)c2cc1NC(=O)/C=C/CN(C)C [PELITINIB] : > 30 µM (inactive)

Observed Kd, RNA cytidine acetyltransferase (Homo sapiens), Cc1nc2cc(-n3ncc(C(=O)c4cc5ccccc5[nH]4)c3N)ccc2[nH]1 [FGFR INHIBITOR DEBIO 1347] : > 30 µM (inactive)

Observed Kd, RNA cytidine acetyltransferase (Homo sapiens), COc1cc2ncnc(Oc3cccc(NC(=O)Nc4cc(C(C)(C)C(F)(F)F)on4)c3)c2cc1OC [CEP-32496] : > 30 µM (inactive)

Observed Kd, RNA cytidine acetyltransferase (Homo sapiens), CNC(=O)c1cccc2cc(Oc3ccnc4cc(OCC5(N)CC5)c(OC)cc34)ccc12 [LUCITANIB] : > 30 µM (inactive)

Observed Kd, RNA cytidine acetyltransferase (Homo sapiens), CN(C[C@@H]1COCCO1)S(=O)(=O)Nc1ccc2ccc3ncc(-c4cnn(C)c4)cc3c(=O)c2c1 [MK-2461] : > 30 µM (inactive)

Observed Kd, RNA cytidine acetyltransferase (Homo sapiens), CO[C@H]1C[C@@H]2CC[C@@H](C)[C@@](O)(O2)C(=O)C(=O)N2CCCC[C@H]2C(=O)O[C@H]([C@H](C)C[C@@H]2CC[C@@H](OC(=O)C(C)(CO)CO)[C@H](OC)C2)CC(=O)[C@H](C)/C=C(\C)[C@@H](O)[C@@H](OC)C(=O)[C@H](C)C[C@H](C)/C=C/C=C/C=C/1C [TEMSIROLIMUS] : > 30 µM (inactive)

Observed Kd, RNA cytidine acetyltransferase (Homo sapiens), NC1(c2ccc(-c3nc4ccn5c(=O)[nH]nc5c4cc3-c3ccccc3)cc2)CCC1 [MK-2206] : > 30 µM (inactive)

Observed Kd, RNA cytidine acetyltransferase (Homo sapiens), O=C(Cc1ccc(-c2ccc(OCCN3CCOCC3)cc2)cn1)NCc1ccccc1 [TIRBANIBULIN] : > 30 µM (inactive)

Observed Kd, RNA cytidine acetyltransferase (Homo sapiens), "C[C@@H](Oc1cc(C(=O)Nc2ccc(C(=O)N3CCN(C)CC3)cc2)nnc1N)c1c(Cl)ccc(F)c1Cl" : > 30 µM (inactive)

Observed Kd, RNA cytidine acetyltransferase (Homo sapiens), Nc1ncnc2c1c(-c1cccc(OCc3ccccc3)c1)cn2[C@H]1C[C@@H](CN2CCC2)C1 [AEW-541] : > 30 µM (inactive)

Observed Kd, RNA cytidine acetyltransferase (Homo sapiens), Cc1nc(NC(=O)N2CCC[C@H]2C(N)=O)sc1-c1ccnc(C(C)(C)C(F)(F)F)c1 [ALPELISIB] : > 30 µM (inactive)

###

- test-system: Mitogen-activated protein kinase kinase kinase kinase 4 (Homo sapiens); also: in the data inactive means no Kd found up to 30 µM
- Sequence (O95819 whole entry): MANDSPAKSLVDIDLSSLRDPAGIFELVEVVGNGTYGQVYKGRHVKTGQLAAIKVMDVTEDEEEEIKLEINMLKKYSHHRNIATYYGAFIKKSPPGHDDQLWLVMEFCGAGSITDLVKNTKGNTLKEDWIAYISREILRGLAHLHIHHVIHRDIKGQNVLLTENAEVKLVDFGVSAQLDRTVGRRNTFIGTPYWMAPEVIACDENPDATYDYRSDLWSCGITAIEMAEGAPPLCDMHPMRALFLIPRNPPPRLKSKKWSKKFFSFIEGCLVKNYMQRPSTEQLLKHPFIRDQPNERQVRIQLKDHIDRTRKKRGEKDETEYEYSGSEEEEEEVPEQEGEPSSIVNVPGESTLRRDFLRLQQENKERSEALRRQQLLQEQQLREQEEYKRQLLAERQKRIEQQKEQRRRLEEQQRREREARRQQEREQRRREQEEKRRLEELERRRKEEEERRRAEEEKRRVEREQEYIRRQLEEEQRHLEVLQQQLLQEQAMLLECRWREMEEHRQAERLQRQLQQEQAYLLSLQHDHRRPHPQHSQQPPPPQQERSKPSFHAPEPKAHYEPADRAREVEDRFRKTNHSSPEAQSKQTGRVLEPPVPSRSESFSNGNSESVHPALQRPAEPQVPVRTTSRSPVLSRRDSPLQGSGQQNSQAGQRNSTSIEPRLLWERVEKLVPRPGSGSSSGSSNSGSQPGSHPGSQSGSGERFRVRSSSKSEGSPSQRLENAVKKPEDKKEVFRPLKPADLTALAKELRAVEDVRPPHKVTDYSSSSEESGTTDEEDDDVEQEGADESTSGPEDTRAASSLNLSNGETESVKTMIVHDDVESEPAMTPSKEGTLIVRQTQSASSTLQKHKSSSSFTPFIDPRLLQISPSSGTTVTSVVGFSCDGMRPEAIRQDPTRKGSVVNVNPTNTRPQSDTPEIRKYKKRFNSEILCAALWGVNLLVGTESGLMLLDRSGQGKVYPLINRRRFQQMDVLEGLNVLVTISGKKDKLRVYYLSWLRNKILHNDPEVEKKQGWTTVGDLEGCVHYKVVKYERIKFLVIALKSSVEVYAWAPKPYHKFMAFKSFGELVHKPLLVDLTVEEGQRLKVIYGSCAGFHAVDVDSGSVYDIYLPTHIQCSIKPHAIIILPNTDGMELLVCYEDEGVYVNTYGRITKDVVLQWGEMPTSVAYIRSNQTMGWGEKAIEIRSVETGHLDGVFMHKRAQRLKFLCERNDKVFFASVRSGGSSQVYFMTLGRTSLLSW
Structures can show the parent of a compound that is named as a salt. Calls of active or inactive are those of the source.
The categories you may choose from are y = active, n = inactive

Here's what some known entries look like.
molecule	class-label
C#Cc1cccc(Nc2ncnc3cc(OC)c(OCCCCCCC(=O)NO)cc23)c1	n
CCS(=O)(=O)N1CCN(c2ccc(Nc3ncc(C(N)=O)c(NC4CC4)n3)cc2)CC1 [Cerdulatinib Hydrochloride]	y
COc1cc2c(Nc3ccc(Cl)c(Cl)c3F)ncnc2cc1OC[C@@H]1C[C@@H]2CN(C)C[C@@H]2C1	y
CNC(=O)c1nn(C)c2c1C(C)(C)Cc1cnc(Nc3ccc(N4CCN(C)CC4)cc3)nc1-2	n
Cn1cc(-c2cnc3ccc4ccc(CS(=O)(=O)NCc5ccccn5)cc4c(=O)c3c2)cn1	n

*Q* Identify the outcome logged in this assay for the molecule shown: "C[C@H]1CNCCCN1S(=O)(=O)c1cccc2cncc(F)c12"
*A* n

*Q* Identify the outcome logged in this assay for the molecule shown: "CC(C)c1cc(CNc2nc(Nc3cc(C4CC4)[nH]n3)cc(N3CCN(C)CC3)n2)on1"
*A* n

*Q* Identify the outcome logged in this assay for the molecule shown: "COCC(=O)NC/C=C/c1ccc2ncnc(Nc3ccc(Oc4ccc(C)nc4)c(C)c3)c2c1"
*A* n

###

Each entry below carries its reported Kd.
- test-system: Activin receptor type-2B (Homo sapiens); also: in the data inactive means no Kd found up to 30 µM
- Sequence (Q13705 whole entry): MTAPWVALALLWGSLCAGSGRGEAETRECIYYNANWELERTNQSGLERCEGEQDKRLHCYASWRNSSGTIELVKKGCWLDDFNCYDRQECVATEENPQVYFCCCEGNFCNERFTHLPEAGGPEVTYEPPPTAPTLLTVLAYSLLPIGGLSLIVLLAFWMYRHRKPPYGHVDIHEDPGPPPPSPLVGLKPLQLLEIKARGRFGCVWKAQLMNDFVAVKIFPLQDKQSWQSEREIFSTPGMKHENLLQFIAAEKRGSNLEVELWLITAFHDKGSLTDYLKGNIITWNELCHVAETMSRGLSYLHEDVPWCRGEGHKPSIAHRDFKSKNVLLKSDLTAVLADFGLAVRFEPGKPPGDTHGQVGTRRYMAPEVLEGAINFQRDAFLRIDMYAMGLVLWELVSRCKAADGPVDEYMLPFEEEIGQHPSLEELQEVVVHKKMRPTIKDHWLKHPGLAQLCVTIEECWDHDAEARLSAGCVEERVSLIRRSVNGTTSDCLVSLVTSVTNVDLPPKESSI
Where a name gives a salt, the structure may show the parent alone. Activity calls are given as the source filed them.

Consider the worked cases shown below.
molecule	Kd
Cc1[nH]c(/C=C2\C(=O)Nc3ccccc32)c(C)c1CCC(=O)O [ORANTINIB]	> 30 µM (inactive)
CO[C@H]1C[C@@H]2CC[C@@H](C)[C@@](O)(O2)C(=O)C(=O)N2CCCC[C@H]2C(=O)O[C@H]([C@H](C)C[C@@H]2CC[C@@H](OC(=O)C(C)(CO)CO)[C@H](OC)C2)CC(=O)[C@H](C)/C=C(\C)[C@@H](O)[C@@H](OC)C(=O)[C@H](C)C[C@H](C)/C=C/C=C/C=C/1C	> 30 µM (inactive)
O=c1[nH]ccc2cc(OC3CCNCC3)ccc12 [SAR-407899 FREE BASE]	> 30 µM (inactive)
O=C(Nc1nc2cccc(-c3ccc(CN4CCS(=O)(=O)CC4)cc3)n2n1)C1CC1	> 30 µM (inactive)
Nc1ncnc2c1c(-c1cccc(OCc3ccccc3)c1)cn2[C@H]1C[C@@H](CN2CCC2)C1	> 30 µM (inactive)
FC(F)(F)c1ccc(/C=C/c2nc(COc3ccc(CCCCn4ccnn4)cc3)co2)cc1	> 30 µM (inactive)
CCS(=O)(=O)N1CCN(c2ccc(Nc3ncc(C(N)=O)c(NC4CC4)n3)cc2)CC1 [Cerdulatinib Hydrochloride]	> 30 µM (inactive)

Okay, next one:
Observed Kd, Activin receptor type-2B (Homo sapiens), "Cc1csc(-c2nnc(Nc3ccc(Oc4ncccc4-c4ccnc(N)n4)cc3)c3ccccc23)c1" : > 30 µM (inactive)

###

- test-system: LIM domain kinase 1 (Homo sapiens); also: in the data inactive means no Kd found up to 30 µM
- Sequence (P53667 whole entry, the tested form may be a part): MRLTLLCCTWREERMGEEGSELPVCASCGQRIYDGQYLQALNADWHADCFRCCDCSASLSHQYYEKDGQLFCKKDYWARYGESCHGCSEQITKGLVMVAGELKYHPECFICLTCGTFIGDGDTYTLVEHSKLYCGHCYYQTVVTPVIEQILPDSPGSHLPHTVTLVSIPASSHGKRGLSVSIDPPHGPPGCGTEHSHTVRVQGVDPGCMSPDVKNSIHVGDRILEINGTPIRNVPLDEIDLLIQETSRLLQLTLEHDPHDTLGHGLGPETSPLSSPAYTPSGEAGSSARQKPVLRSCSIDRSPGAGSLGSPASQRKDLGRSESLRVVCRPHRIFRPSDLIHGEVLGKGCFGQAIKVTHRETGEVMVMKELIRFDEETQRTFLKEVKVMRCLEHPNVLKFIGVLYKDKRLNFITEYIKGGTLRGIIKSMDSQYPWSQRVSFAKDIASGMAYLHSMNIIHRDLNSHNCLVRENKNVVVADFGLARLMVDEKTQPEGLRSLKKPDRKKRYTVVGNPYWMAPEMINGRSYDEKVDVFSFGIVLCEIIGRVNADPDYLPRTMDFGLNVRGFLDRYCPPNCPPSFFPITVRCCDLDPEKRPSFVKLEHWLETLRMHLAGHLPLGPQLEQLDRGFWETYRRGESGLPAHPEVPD
Calls of active or inactive are those of the source.
The categories you may choose from are label 1 for active, label 0 for inactive

molecule	class-label
C#Cc1cccc(Nc2ncnc3cc(OC)c(OCCCCCCC(=O)NO)cc23)c1	label 0

*Q* Identify the outcome logged in this assay for the molecule shown: "CCOc1cc2ncc(C#N)c(Nc3ccc(F)c(Cl)c3)c2cc1NC(=O)/C=C/CN(C)C"
*A* label 0

*Q* Identify the outcome logged in this assay for the molecule shown: O=c1[nH]ccc2cc(OC3CCNCC3)ccc12 [SAR-407899 FREE BASE]
*A* label 0

*Q* Identify the outcome logged in this assay for the molecule shown: "FC(F)(F)c1ccc(/C=C/c2nc(COc3ccc(CCCCn4ccnn4)cc3)co2)cc1"
*A* label 0

*Q* Identify the outcome logged in this assay for the molecule shown: "CC(C)(C)c1nc(-c2cccc(NS(=O)(=O)c3c(F)cccc3F)c2F)c(-c2ccnc(N)n2)s1"
*A* label 1

*Q* Identify the outcome logged in this assay for the molecule shown: "CO[C@H]1C[C@@H]2CC[C@@H](C)[C@@](O)(O2)C(=O)C(=O)N2CCCC[C@H]2C(=O)O[C@H]([C@H](C)C[C@@H]2CC[C@@H](OC(=O)C(C)(CO)CO)[C@H](OC)C2)CC(=O)[C@H](C)/C=C(\C)[C@@H](O)[C@@H](OC)C(=O)[C@H](C)C[C@H](C)/C=C/C=C/C=C/1C"
*A* label 0

###

- test-system: Dual specificity protein kinase CLK1 (Homo sapiens, UniProt P49759); also: in the data inactive means no Kd found up to 30 µM
- Sequence (P49759 whole entry): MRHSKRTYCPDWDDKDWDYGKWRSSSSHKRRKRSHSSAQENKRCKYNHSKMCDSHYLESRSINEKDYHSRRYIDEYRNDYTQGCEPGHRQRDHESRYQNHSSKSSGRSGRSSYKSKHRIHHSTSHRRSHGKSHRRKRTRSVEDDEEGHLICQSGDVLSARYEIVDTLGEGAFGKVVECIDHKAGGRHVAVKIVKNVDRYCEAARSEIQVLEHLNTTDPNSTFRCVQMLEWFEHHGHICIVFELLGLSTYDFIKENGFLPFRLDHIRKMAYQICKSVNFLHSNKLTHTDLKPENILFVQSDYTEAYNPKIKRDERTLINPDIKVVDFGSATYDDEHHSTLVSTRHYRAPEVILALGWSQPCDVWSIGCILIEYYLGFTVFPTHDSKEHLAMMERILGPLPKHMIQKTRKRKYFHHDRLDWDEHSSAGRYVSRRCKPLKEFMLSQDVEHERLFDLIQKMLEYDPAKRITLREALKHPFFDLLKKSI
Active and inactive are the calls of the source.
The categories you may choose from are active, inactive

Here's what some known entries look like.
molecule	class-label
COc1ncc(-c2ccc3nccc(-c4ccnnc4)c3c2)cc1NS(=O)(=O)c1ccc(F)cc1F	inactive
Cc1cccc(-c2nn3c(c2-c2ccnc4ccc(C(N)=O)cc24)CCC3)n1	inactive
CO[C@H]1C[C@@H]2CC[C@@H](C)[C@@](O)(O2)C(=O)C(=O)N2CCCC[C@H]2C(=O)O[C@H]([C@H](C)C[C@@H]2CC[C@@H](OC(=O)C(C)(CO)CO)[C@H](OC)C2)CC(=O)[C@H](C)/C=C(\C)[C@@H](O)[C@@H](OC)C(=O)[C@H](C)C[C@H](C)/C=C/C=C/C=C/1C	inactive
Cc1[nH]c(/C=C2\C(=O)Nc3ccccc32)c(C)c1CCC(=O)O [ORANTINIB]	inactive
CCCCCCCCCCCCCCCCCCOP(=O)([O-])OC1CC[N+](C)(C)CC1	inactive
COc1c(OCCCN2CCOCC2)ccc2c1N=C(NC(=O)c1cnc(N)nc1)N1CCN=C21	inactive
CCn1c(C(=O)N(C2CC2)C2CC2)cc2c3c(ncn3C)c(Nc3cc(C)n(C)n3)nc21	inactive
O=C(Nc1c[nH]nc1-c1nc2cc(CN3CCOCC3)ccc2[nH]1)NC1CC1	active

*Q* Identify the outcome logged in this assay for the molecule shown: "COc1cc2ncnc(Oc3cccc(NC(=O)Nc4cc(C(C)(C)C(F)(F)F)on4)c3)c2cc1OC"
*A* inactive

*Q* Identify the outcome logged in this assay for the molecule shown: "CC(C)(C)c1nc(-c2cccc(NS(=O)(=O)c3c(F)cccc3F)c2F)c(-c2ccnc(N)n2)s1"
*A* inactive

*Q* Identify the outcome logged in this assay for the molecule shown: "CNC(=O)c1cc(Oc2ccc(NC(=O)Nc3cc(C(C)(C)C)nn3-c3ccc4ncccc4c3)c(F)c2)ccn1"
*A* active
